Target: T1, 4H3974-bN
T1 chain: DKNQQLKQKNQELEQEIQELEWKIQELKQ
Test: two-hybrid library CCNG1;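 note: natural log of median RNA to DNA barcode read ratio; higher means stronger binding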
measure: interaction score

[
  {
    "binder": "DENQQLKQKIQELKQKIQELKWENQELEQ [4H1899-bN]",
    "measure": "interaction score",
    "result": -0.336
  },
  {
    "binder": "DENQQLEQKIQELKQENQELKWKIQELEQ [4H1373-bN]",
    "measure": "interaction score",
    "result": -0.592
  },
  {
    "binder": "DKNQQLKQEIQELEQKIQELKWENQELKQ [4H3628-bN]",
    "measure": "interaction score",
    "result": -0.134
  },
  {
    "binder": "DKNQQLKQEIQELEQKNQELEWKIQELKQ [4H3638-bN]",
    "measure": "interaction score",
    "result": -0.469
  },
  {
    "binder": "DENQQLKQKNQELKQEIQELEWEIQELEQ [4H1985-bN]",
    "measure": "interaction score",
    "result": -1.17
  }
]

[1] DKNQQLKQENQELKQKIQELKWEIQELEQ [4H3817-bN]
[2] DENQQLEQKNQELEQKIQELKWEIQELEQ [4H1449-bN]
[3] DKNQQLEQEIQELKQKIQELEWENQELKQ [4H3172-bN]
[4] DENQQLKQEIQELKQENQELKWKIQELEQ [4H1629-bN]
[5] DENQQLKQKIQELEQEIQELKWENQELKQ [4H1804-bN]
Query block: // smallest interaction score at index 0, largest at the end A complete answer lists every label in the requested sequence.
Result block: 5, 4, 1, 3, 2

[P] DENQQLEQKIQELEQKNQELKWEIQELKQ [4H1338-bN]
[Q] DKNQQLEQKIQELKQENQELEWKIQELKQ [4H3414-bN]
[R] DKNQQLKQKIQELEQENQELEWEIQELKQ [4H3858-bN]
[S] DKNQQLKQEIQELEQKIQELKWKNQELEQ [4H3631-bN]
Query block: // smallest interaction score at index 0, largest at the end A complete answer lists every label in the requested sequence.
Result block: R, P, S, Q

[A] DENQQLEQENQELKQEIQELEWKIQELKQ [4H1222-bN]
[B] DKNQQLKQEIQELEQENQELKWKIQELEQ [4H3613-bN]
[C] DKNQQLKQKNQELEQEIQELEWKIQELKQ [4H3974-bN]
Query block: // smallest interaction score at index 0, largest at the end A complete answer lists every label in the requested sequence.
Result block: B, A, C
(B: -1.53, A: -0.957, C: -0.444)

[P] DKNQQLEQEIQELEQKNQELKWEIQELEQ [4H3129-bN]
[Q] DENQQLKQEIQELEQEIQELEWKNQELKQ [4H1544-bN]
Query block: Hi there! Just curious which has the higher interaction score between P and Q . Choose, then provide that item's label.
Result block: Q

[a] DENQQLEQKIQELKQEIQELEWENQELKQ [4H1348-bN]
[b] DENQQLEQKIQELKQKNQELEWEIQELEQ [4H1393-bN]
[c] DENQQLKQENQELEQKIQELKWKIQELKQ [4H1710-bN]
[d] DENQQLEQKIQELKQEIQELKWKNQELEQ [4H1359-bN]
Query block: // smallest interaction score at index 0, largest at the end A complete answer lists every label in the requested sequence.
Result block: b, a, c, d
(b: -0.815, a: 0.224, c: 0.85, d: 1.47)
